test: Oral bioavailability in mouse at 10 mg/kg; format: ADME, organism-based; conditions: in vivo
assay.readout: bioavailability

The value of bioavailability measured for the molecule "CN1CCN(c2nc(Nc3ccc(S(N)(=O)=O)cc3)ncc2F)Cc2ccc(F)cc21" turned out to be 73%

----------
tested on: HepG2; experiment: Antiproliferative activity against human HepG2 cells incubated for 48 hrs by SRB assay; assay type: functional, cell-based; details: HepG2, 48 h
// reported pIC50 for each item listed
Interpret pIC50 as the negative base-10 log of the concentration measured in mol/L.

- NC1=C(C(=O)Nc2ccc(-c3nc4ccccc4[nH]3)cc2)C(c2ccc([N+](=O)[O-])cc2)N2C=CSC2N1 (configuration not stated): 5.63

With those in mind, consider the next compound.
The value of pIC50 measured for the compound COc1ccccc1C1C(C(=O)Nc2ccc(-c3nc4ccccc4[nH]3)cc2)=C(N)NC2SC=CN21 (configuration not stated) turned out to be 5.68

Origin of values: ChEMBL document CHEMBL5096182
